- System: Es-2
- procedure details: Primary qHTS to identify gynecologic anti-cancer compounds using libraries of approved drugs and bioactive compounds (AID 1345084); note: nearly all actives have a fitted effect of over 55% in size
- conditions used: Gynecologic cancer cell panel viability, ATPlite luminescence, 48 h; series mostly up to 57.5 µM
Records with an inconclusive call do not appear. Calls of active or inactive are those of the source. Calls come from the whole dose curve; as a rule, active = well fitted cell-killing curve with a large enough effect; inconclusive = small, poorly fitted or top-dose-only effect, or effect the other way; inactive = flat fitted curve, though single readings scatter.
Just give me one of these, please: active, inactive

Here are 4 compounds together with their reported answers.
[Q] Please state the recorded outcome for this compound: `CN(c1ccccc1CNc1nc(Nc2ccc3c(c2)CC(=O)N3)ncc1C(F)(F)F)S(C)(=O)=O`
[A] active

[Q] Please state the recorded outcome for this compound: `O=C(OC[C@H]1O[C@H](O[C@]2(CO)O[C@H](CO)[C@@H](O)[C@@H]2O)[C@H](O)[C@@H](O)[C@@H]1O)c1ccccc1`
[A] inactive

[Q] Please state the recorded outcome for this compound: `Cc1oc2ccccc2c1CNC(=O)NCc1cccs1`
[A] inactive

[Q] Please state the recorded outcome for this compound: `CC(=O)O[C@H]1C(=O)[C@@]2(C)[C@H]([C@H](OC(=O)c3ccccc3)[C@]3(O)C[C@H](OC(=O)[C@H](O)[C@@H](NC(=O)c4ccccc4)c4ccccc4)C(C)=C1C3(C)C)[C@]1(OC(C)=O)CO[C@@H]1C[C@@H]2O`
[A] active

In the following, a different compound is considered.
[Q] Please state the recorded outcome for this compound: CC1=CCC2C(C)(C)CCC[C@]2(C)[C@@]12CC[C@](C)(CC(=O)O)O2 (some centres not stated)
[A] inactive

----------
- Test system: HeLa
- procedure details: Primary qHTS to identify gynecologic anti-cancer compounds using libraries of approved drugs and bioactive compounds (AID 1345084); note: nearly all actives have a fitted effect of over 55% in size
- conditions used: Gynecologic cancer cell panel viability, ATPlite luminescence, 48 h; series mostly up to 57.5 µM
Results filed as inconclusive are left out. Active and inactive are the calls of the source. Calls follow the shape of the dose curve; as a rule, active = well fitted cell-killing curve with a large enough effect; inconclusive = small, poorly fitted or top-dose-only effect, or effect the other way; inactive = flat fitted curve, though single readings scatter.
Just give me one of these, please: active, inactive

[Q] Please state the recorded outcome for this compound: `FC(F)(F)c1cc(-c2ncn(/C=C\c3nnco3)n2)cc(C(F)(F)F)c1`
[A] inactive

[Q] Please state the recorded outcome for this compound: `Cn1nnc(-c2ccc(-c3ccc(N4C[C@H](CO)OC4=O)cc3F)cn2)n1`
[A] inactive

[Q] Please state the recorded outcome for this compound: COc1ccc([C@@]2(O)c3c(ccc4c3OC(C)(CCC=C(C)C)C=C4)NC(=O)[C@@H]2OC)cc1 (stereo partly drawn)
[A] inactive

[Q] Please state the recorded outcome for this compound: C=C1C(O)CC2C(C(=O)O)=COC(O[C@@H]3O[C@H](COC(=O)/C=C/c4ccc(O)cc4)[C@@H](O)[C@H](O)[C@H]3O)C12 (stereo partly drawn)
[A] inactive

[Q] Please state the recorded outcome for this compound: O=C(O)c1ccc(OC2OC(CO)C(O)C(O)C2O)cc1 (stereo not drawn)
[A] inactive

---
[Q] Please state the recorded outcome for this compound: `CC(=O)O[C@@H]1CC(C)=C2[C@H]1[C@H](C)CC[C@H]2/C=C(\C)C(=O)O`
[A] inactive

[Q] Please state the recorded outcome for this compound: CCNC(=O)C1OC(n2cnc3c(N)nc(NCCc4ccc(CCC(=O)O)cc4)nc32)C(O)C1O (stereo not drawn)
[A] inactive

[Q] Please state the recorded outcome for this compound: `Cn1c2ccc(F)cc2c2c(C(=O)N3CCCC3)cn(-c3ccccc3)c(=O)c21`
[A] inactive

[Q] Please state the recorded outcome for this compound: C=C1C(OC2OCC(O)C(O)C2O)CC2C(C)(C)C(O)CCC2(C)C1CC/C(C)=C\CO (stereo not drawn)
[A] inactive

[Q] Please state the recorded outcome for this compound: COC(=O)C(C)C1CCC2(C)C(=O)C=CC(C)(O)C2C1O (stereo not drawn)
[A] inactive

[Q] Please state the recorded outcome for this compound: CC1=CC(=O)C2(OC3OC(C)C(O)C(OC(=O)/C=C/c4ccccc4)C3O)C=COC(OC3OC(CO)C(O)C(O)C3O)C12 (stereo not drawn)
[A] inactive

[Q] Please state the recorded outcome for this compound: `O=C1OCC(c2ccccc2)=C1Cc1ccccc1`
[A] inactive

[Q] Please state the recorded outcome for this compound: `CC(=O)O[C@@H]1c2c3c(cc(O)c2C(=O)O[C@@H]1C)O[C@@]1(C)[C@@H](O)C[C@H]2C(C)(C)C(=O)C=C[C@]2(C)[C@@H]1C3`
[A] inactive

[Q] Please state the recorded outcome for this compound: `COC(=O)N1CCC(n2ncc3c(N4CCOCC4)nc(-c4ccc(NC(=O)Nc5ccc(CO)cc5)cc4)nc32)CC1`
[A] active

[Q] Please state the recorded outcome for this compound: O=C(NCC(O)CO)c1ccncc1Nc1ccc(I)cc1F (stereo not drawn)
[A] inactive

[Q] Please state the recorded outcome for this compound: `c1ccc(-c2ncc(CN3CCN(c4ncccn4)CC3)[nH]2)cc1`
[A] inactive

[Q] Please state the recorded outcome for this compound: CC1=CC2C(CC1OC1OC(CO)C(O)C(O)C1O)C(C)CC(=O)C2C(C)C (stereo not drawn)
[A] inactive

[Q] Please state the recorded outcome for this compound: `CC(C)CC(=O)O[C@@H]1OC=C(CO[C@@H]2O[C@H](CO)[C@@H](O)[C@H](O)[C@H]2O)[C@H]2[C@@H]3O[C@H]3[C@@](O)(CO)[C@@H]12`
[A] inactive

----------
- Test system: HEK293
- procedure details: Cytotoxic Profiling of Annotated Libraries Using Quantitative High-Throughput Screening (AID 1296008); note: % is set by controls: 0 for no effect and ±100 for the full control effect; nearly all actives have a fitted effect of over 60% in size
- conditions used: Five cell lines viability, CellTiter-Glo ATP luminescence, 48-72 h; active compounds read low
- Experimental: Cell-based phenotypic screening is a commonly used approach to discover biological pathways, novel drug targets, chemical probes and high-quality hit-to-lead molecules. […] A pintool (Kalypsys) was used to transfer 23 nL of compound solution to the 1536-well assay plates. […] Plates were left at room temperature for 10 min before imaging the ATP-coupled luminescence using a ViewLux microplate imager (PerkinElmer, Waltham, MA).
Results filed as inconclusive are left out.
reported endpoint: max response (%)
Give bare numbers, in %.

The value of max response measured for the compound C[C@@H]1O[C@@H](OC[C@H]2O[C@@H](Oc3cc(O)cc4c3C(=O)C(O)(Cc3ccc(O)cc3)O4)[C@H](O)[C@@H](O)[C@@H]2O)[C@H](O)[C@H](O)[C@H]1O (some centres undefined) turned out to be 1.44

The value of max response measured for the compound `C=C(C(=O)O)[C@@H]1CC[C@@]2(C)CC[C@H](O)[C@@]2(C(C)=O)C1` turned out to be -2.38

The value of max response measured for the compound CC(c1ncncc1F)C(O)(Cn1cncn1)c1ccc(F)cc1F (centres undefined) turned out to be -0.4

The value of max response measured for the compound CCC(=O)O[C@H]1C(C)(C)[C@H]([C@@H](O)C(=O)OC)[C@]2(C)C(=O)[C@@]1(O)[C@H]1O[C@]13C1CC(=O)O[C@@H](c4ccoc4)[C@]1(C)CCC32 (some centres undefined) turned out to be -1.59

The value of max response measured for the compound `C/C1=C\CCC2=C[C@@H](OC2=O)c2c(C)coc2C1` turned out to be -3.99

Would you mind listing max response for each of the following compounds?
1. NC(=O)C(CCC(F)(F)F)N(Cc1ccc(-c2ncon2)cc1F)S(=O)(=O)c1ccc(Cl)cc1 (centres undefined)
2. C[C@@H]1CN(Cc2ccccc2)C[C@H]1c1nc2c(cnn2C2CCOCC2)c(=O)[nH]1
3. CC(C)(C)CCN1C[C@@H]2C(CNC(=O)c3cc(Cl)cc(Cl)c3)[C@@H]2C1 (some centres undefined)

[A]
1. -83.5
2. 2.89
3. -15.4

The value of max response measured for the compound `CC(=O)N[C@@H](C(=O)O[C@H]1CCC(C)(C)[C@@H]2CCC3=C(COC3=O)[C@@]12C)C(C)C` turned out to be 1.75

----------
- Tested on: Es-2
- procedure details: Primary qHTS to identify gynecologic anti-cancer compounds using libraries of approved drugs and bioactive compounds (AID 1345084); note: nearly all actives have a fitted effect of over 55% in size; for activity change, negative = cytotoxicity: % is set by controls: 0 for no effect and ±100 for the full control effect
- conditions used: Gynecologic cancer cell panel viability, ATPlite luminescence, 48 h; series mostly up to 57.5 µM
Inconclusive results are not listed. Calls of active or inactive are those of the source. Calls follow the shape of the dose curve; as a rule, active = well fitted cell-killing curve with a large enough effect; inconclusive = small, poorly fitted or top-dose-only effect, or effect the other way; inactive = flat fitted curve, though single readings scatter.
reported endpoint: activity change, negative = cytotoxicity

Recorded activity change, negative = cytotoxicity for CC1(C)CC[C@]2(C(=O)O[C@@H]3O[C@H](CO)[C@@H](O)[C@H](O)[C@H]3O)CC[C@]3(C)C(=CCC4[C@@]5(C)CC[C@H](O[C@@H]6O[C@H](C(=O)O)[C@@H](O)[C@H](O)[C@H]6O)[C@@](C)(CO)C5CC[C@]43C)C2C1 (stereo partly specified) on Es-2 was 1.13% [at 11.6 µM] (inactive)

Recorded activity change, negative = cytotoxicity for CC1(C)CC[C@@]2(C(=O)O[C@@H]3O[C@H](CO)[C@@H](O)[C@H](O)[C@H]3O)C(C1)C1=CCC3[C@@]4(C)CC[C@@H](O[C@@H]5O[C@H](C(=O)O)[C@@H](O[C@@H]6OC[C@@H](O)[C@H](O)[C@H]6O)[C@H](O[C@@H]6OC[C@](O)(CO)[C@H]6O)[C@H]5O)C(C)(C)C4CC[C@@]3(C)[C@]1(C)C[C@H]2O (stereo partly specified) on Es-2 was -7.12% [at 11.6 µM] (inactive)

Recorded activity change, negative = cytotoxicity for C[C@@H]1O[C@@H](O[C@@H]2[C@@H](O)[C@H](O[C@H]3[C@H](O[C@H]4CC[C@@]5(C)C(CC[C@]6(C)C5CC=C5[C@@H]7CC(C)(C)CC[C@]7(C(=O)O[C@@H]7O[C@H](CO)[C@@H](O)[C@H](O)[C@H]7O[C@@H]7O[C@@H](C)[C@H](O[C@@H]8O[C@@H](C)[C@H](O)[C@@H](O)[C@H]8O)[C@@H](O)[C@H]7O)CC[C@]56C)[C@@]4(C)CO)O[C@H](C(=O)O)[C@@H](O)[C@@H]3O)O[C@H](CO)[C@H]2O)[C@H](O)[C@H](O)[C@H]1O (stereo partly specified) on Es-2 was -0.113% [at 6.55 µM] (inactive)

Recorded activity change, negative = cytotoxicity for C[C@@H]1O[C@@H](O[C@H]2[C@@H](OC(=O)[C@]34CCC(C)(C)CC3C3=CCC5[C@@]6(C)C[C@H](O)[C@H](O[C@@H]7O[C@H](C(=O)O)[C@@H](O)[C@H](O)[C@H]7O)[C@@](C)(C(=O)O)C6CC[C@@]5(C)[C@]3(C)CC4)OC[C@H](O)[C@@H]2O)[C@H](O)[C@H](O)[C@H]1O[C@@H]1OC[C@@H](O)[C@H](O)[C@H]1O (stereo partly specified) on Es-2 was -0.221% [at 11.6 µM] (inactive)

Recorded activity change, negative = cytotoxicity for CC1(C=O)CC[C@]2(C(=O)O[C@@H]3O[C@H](CO)[C@@H](O)[C@H](O)[C@H]3O)CC[C@]3(C)C(=CCC4[C@@]5(C)C[C@H](O)[C@H](O[C@@H]6OC[C@@H](O)[C@H](O)[C@H]6O)[C@@](C)(CO)C5CC[C@]43C)C2C1 (stereo partly specified) on Es-2 was -7.22% [at 11.6 µM] (inactive)

# evaluate next
Recorded activity change, negative = cytotoxicity for C[C@@H]1O[C@@H](O[C@H]2[C@H](O[C@H]3CC[C@@]4(C)C(CC[C@]5(C)C4C=C[C@]46OC[C@@]7(CCC(C)(C)C[C@H]74)[C@@H](O)C[C@]65C)[C@]3(C)CO)O[C@H](CO)[C@@H](O)[C@@H]2O[C@@H]2O[C@H](CO)[C@@H](O[C@@H]3O[C@@H](C)[C@H](O)[C@@H](O)[C@H]3O)[C@H](O)[C@H]2O)[C@H](O)[C@H](O)[C@H]1O (stereo partly specified) on Es-2 was -4.56% [at 11.6 µM] (inactive)
